# experimentalProtocol: Doxorubicin-resistant tumor xenograft in nude mice
# experimentalContext: CD1 nude, mouse, in vivo
# Description: Strain CD1 nude mice were obtained from Charles River Laboratories (Wilmington, Mass.) at approximately 5-6 weeks of age and weighing approximately 30 g. Animals received s.c. implantation of doxorubicin-resistant MCF7/R cells (10^6 cells in 100 μl). […]
property: MTD

Given item COc1cccc2c1C(=O)c1c(O)c3c(c(O)c1C2=O)C[C@@](O)(C(=O)CO)C[C@@H]3O[C@H]1C[C@H](N)[C@H](O)[C@H](C)O1 [doxorubicin] , the value recorded as its MTD is 2.5 mg/kg

----------
# experimentalProtocol: Solubility
# Assay type: physicochemical
# experimentalContext: in water after preparing a solution at 10^−1 M in DMSO
property: solubility (µM)
Give bare numbers, in µM.

Given item CCNC(Cc1cc(I)c(Oc2cc(I)c(O)c(I)c2)c(I)c1)C(=O)OCC (stereo not shown) , the value recorded as its solubility is 1000
